- test-system: Corticotropin-releasing factor receptor 1 (Rattus norvegicus)
- Sequence (P35353 whole entry): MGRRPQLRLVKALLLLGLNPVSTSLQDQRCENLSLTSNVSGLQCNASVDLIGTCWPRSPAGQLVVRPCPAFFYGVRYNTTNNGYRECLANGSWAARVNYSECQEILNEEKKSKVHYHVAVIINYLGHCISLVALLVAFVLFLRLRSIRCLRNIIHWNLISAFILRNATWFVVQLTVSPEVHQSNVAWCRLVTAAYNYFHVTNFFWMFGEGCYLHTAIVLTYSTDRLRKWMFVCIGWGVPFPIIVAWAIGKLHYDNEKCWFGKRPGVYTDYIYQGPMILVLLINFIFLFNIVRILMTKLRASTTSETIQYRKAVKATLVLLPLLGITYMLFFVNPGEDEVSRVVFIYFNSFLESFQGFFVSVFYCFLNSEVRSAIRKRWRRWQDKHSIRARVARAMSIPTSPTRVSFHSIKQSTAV
- method: Inhibition of [125I]- Ovine CRF binding to rat frontal cortex corticotropin releasing factor 1 receptor
- Type: tissue-based
assay-metric: pIC50
Keep in mind that pIC50 stands for -log10 of concentration in molar terms.

A selection of reference data follows.
INSERT INTO results (compound, test_system, observed) VALUES
  ('CCCC(CCC)n1c(CC)nc2c1C(=O)N(C)CN2c1c(C)cc(C)cc1C', 'Corticotropin-releasing factor receptor 1 (Rattus norvegicus)', 7.66),
  ('CCCC(C)n1c(CC)nc2c1C(=O)N(C)CN2c1ccc(Cl)cc1Cl (stereo unspecified)', 'Corticotropin-releasing factor receptor 1 (Rattus norvegicus)', 7.28),
  ('CCc1nc2c(n1Cc1ccccc1C)C(=O)N(C)CN2c1ccc(Cl)cc1Cl', 'Corticotropin-releasing factor receptor 1 (Rattus norvegicus)', 6.34),
  ('CCCC(CCC)n1c(CC)nc2c1C(=O)N(C)C(CC)N2c1ccc(Cl)cc1Cl (stereo unspecified)', 'Corticotropin-releasing factor receptor 1 (Rattus norvegicus)', 6.20),
  ('CCc1nc2c(n1COCc1ccccc1)C(=O)N(C)CN2c1ccc(Cl)cc1Cl', 'Corticotropin-releasing factor receptor 1 (Rattus norvegicus)', 6.07),
  ('CCc1nc2c(n1C(C)C1CC1)C(=O)N(C)CN2c1ccc(Cl)cc1Cl (stereo unspecified)', 'Corticotropin-releasing factor receptor 1 (Rattus norvegicus)', 7.26);

Exercise: Reported pIC50 for `CCc1nc2c(n1Cc1ccccc1C)C(=O)N(C)CN2c1ccc(OC)cc1Cl` : what is it?
Solution: 6.06

Exercise: Also CCCC(CCC)n1c(CC)nc2c1C(=O)N(C)C(C)N2c1ccc(Cl)cc1Cl (stereo unspecified) ?
Solution: 6.42

Exercise: Also `CCCC(CCC)n1cnc2c1C(=O)N(C)CN2c1ccc(Cl)cc1Cl` ?
Solution: 6.05

Exercise: Also CCCC(COC)n1c(CC)nc2c1C(=O)N(C)CN2c1ccc(Cl)cc1Cl (stereo unspecified) ?
Solution: 7.37

Exercise: Also CCCC(C1CC1)n1c(CC)nc2c1C(=O)N(C)CN2c1ccc(Cl)cc1Cl (stereo unspecified) ?
Solution: 8.00
